- target-or-test-system: PDE10A2 (Homo sapiens, UniProt Q9Y233)
- Construct: residues serine 449 to aspartate 789; His6 (H6) with Gateway linker and thrombin cleavage site (N, cleaved yes)
- Sequence (Q9Y233 715-1055): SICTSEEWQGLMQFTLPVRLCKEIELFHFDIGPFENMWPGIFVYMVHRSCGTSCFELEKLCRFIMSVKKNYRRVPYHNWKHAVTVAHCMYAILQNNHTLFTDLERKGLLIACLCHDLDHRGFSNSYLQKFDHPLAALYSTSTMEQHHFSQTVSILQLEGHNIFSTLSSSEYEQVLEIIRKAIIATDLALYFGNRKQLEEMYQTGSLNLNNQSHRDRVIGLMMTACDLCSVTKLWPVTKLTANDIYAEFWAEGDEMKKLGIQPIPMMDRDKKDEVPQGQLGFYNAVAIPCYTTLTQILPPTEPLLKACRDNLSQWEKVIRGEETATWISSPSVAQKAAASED
- assay-details: PDE10A2 Scintillation Proximity Assay (SPA), [3H]-cGMP hydrolysis
- condition-info: catalytic domain of human PDE10A2 (S449-D789), 0.25 nM enzyme, 50 nM cGMP + 50 nM [3H]-cGMP, 30 minutes at room temperature; read-out: PDE10A2 inhibition IC50
observed-property: pIC50
# pIC50 is unitless: minus log10 of the molar concentration; print number only

>>> reported_result("O=c1ccn(-c2ccc3cnccc3c2)nc1-c1ccnn1-c1cccc(F)c1")
7.39
>>> reported_result("O=c1ccn(-c2cccnc2)nc1-c1ccnn1-c1cc(F)ccc1F")
6.45
>>> reported_result("Cc1cc(-n2nccc2-c2nn(-c3ccncc3)ccc2=O)ccn1")
6.38
>>> reported_result("O=c1ccn(-c2cccnc2)nc1-c1ccnn1-c1ccc2c(c1)OCCO2")
7.09
>>> reported_result("O=c1ccn(-c2ccnc(Cl)c2)nc1-c1ccnn1-c1ccnc(Cl)c1")
5.81
>>> reported_result("O=c1ccn(-c2ccncc2)nc1-c1ccnn1-c1ccccc1Cl")
6.64
>>> reported_result("O=c1ccn(-c2cncc(Cl)c2)nc1-c1ccnn1-c1ccnc2ccc(Cl)cc12")
6.66
>>> reported_result("O=c1ccn(-c2ccncc2)nc1-c1ccnn1-c1ccnc2ccccc12")
8.05

Pending molecule:
Ask: Reported pIC50 for "Cc1cncc(-n2ccc(=O)c(-c3ccnn3-c3ccnc4cc(Cl)ccc34)n2)c1" : what is it?
Result: 6.99

====

List of pIC50 values.
- target-or-test-system: PDE10A2 (Homo sapiens)
- Construct: residues serine 449 to aspartate 789; His6 (H6) with Gateway linker and thrombin cleavage site (N, cleaved yes)
- assay-details: PDE10A2 Scintillation Proximity Assay (SPA), [3H]-cGMP hydrolysis
- condition-info: catalytic domain of human PDE10A2 (S449-D789), 0.25 nM enzyme, 50 nM cGMP + 50 nM [3H]-cGMP, 30 minutes at room temperature; read-out: PDE10A2 inhibition IC50
Please express pIC50 as -log10 of the molar concentration.

Here is how some molecules turned out for pIC50.
>>> reported_result("O=c1ccn(-c2ccncc2)nc1-c1ccnn1-c1ccccc1")
7.16
>>> reported_result("O=c1ccn(-c2ccc(C(F)(F)F)nc2)nc1-c1ccnn1-c1cccc2ncccc12")
7.14
>>> reported_result("Cc1cncc(-n2ccc(=O)c(-c3ccnn3-c3ccccc3F)n2)c1")
7.05

Here is another molecule to look at.
Ask: Sample "O=c1ccn(-c2ccncc2)nc1-c1ccnn1-c1ccccc1F" — what was its pIC50?
Result: 6.94
